Consider the following compounds and their measured residual activity readings.
Target: UniProt Q16584
Sequence (Q16584 whole entry, looked up): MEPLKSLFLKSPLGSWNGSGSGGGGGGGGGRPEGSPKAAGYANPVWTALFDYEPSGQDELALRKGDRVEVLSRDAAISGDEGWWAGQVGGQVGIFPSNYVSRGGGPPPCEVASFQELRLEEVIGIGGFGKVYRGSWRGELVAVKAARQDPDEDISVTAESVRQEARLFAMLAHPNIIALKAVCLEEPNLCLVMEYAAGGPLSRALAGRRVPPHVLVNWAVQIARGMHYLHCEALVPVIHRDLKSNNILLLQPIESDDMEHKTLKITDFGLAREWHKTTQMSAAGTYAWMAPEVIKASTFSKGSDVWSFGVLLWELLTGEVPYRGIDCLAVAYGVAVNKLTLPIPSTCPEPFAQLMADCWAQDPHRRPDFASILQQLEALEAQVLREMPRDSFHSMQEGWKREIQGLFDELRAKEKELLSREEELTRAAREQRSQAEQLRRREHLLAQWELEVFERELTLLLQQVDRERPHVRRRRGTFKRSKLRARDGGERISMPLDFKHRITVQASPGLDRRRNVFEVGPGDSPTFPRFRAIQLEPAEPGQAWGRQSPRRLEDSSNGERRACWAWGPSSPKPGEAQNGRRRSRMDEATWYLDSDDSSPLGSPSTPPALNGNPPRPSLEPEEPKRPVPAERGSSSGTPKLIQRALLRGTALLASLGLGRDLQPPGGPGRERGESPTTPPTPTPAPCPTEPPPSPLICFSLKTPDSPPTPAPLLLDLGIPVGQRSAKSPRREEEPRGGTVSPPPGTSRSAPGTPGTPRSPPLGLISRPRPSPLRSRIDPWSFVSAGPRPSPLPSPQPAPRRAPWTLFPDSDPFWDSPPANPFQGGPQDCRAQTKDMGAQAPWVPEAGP
Assay: radiometric filter-binding kinase assay, Kinase HotSpot
Details: compound 0.5 µM; ATP 10 µM
Output spec: scalar in %, unitless text.

The examples below pair each entry with its known result.
# compound, residual activity [%]
records = [
    ("CS(=O)c1ccc(-c2nc(-c3ccc(F)cc3)c(-c3ccncc3)[nH]2)cc1 (stereo not given)", 96.4),
    ("Nc1n[nH]c2nnc(-c3c(-c4ccccc4)nn4ccccc34)cc12", 94.3),
    ("CCCNC(=O)Nc1ccc(Oc2ncnc3cc(OC)c(OC)cc23)cc1Cl", 89.2),
    ("NC(=O)c1ccc(N(C(N)=O)c2c(F)cccc2F)nc1-c1ccc(F)cc1F", 105),
]

*Q* What measured residual activity goes with "O=c1cc(N2CCNCC2)oc2c(-c3ccccc3)cccc12" ?
*A* 97.8

###

Target: MYLK (human)
Assay: radiometric filter-binding kinase assay, Kinase HotSpot
Settings: compound 0.5 µM; ATP 10 µM
// reported residual activity for each item listed
Field format: number, assumed %, no unit text.

Use these answered entries as a reference point.
# compound, residual activity [%]
rows = [
    ("O=C1Nc2ccccc2/C1=C\\c1c(Cl)[nH]c2ccccc12", 90.4),
    ("O=C(NC(NC(=S)Nc1ccc(F)c([N+](=O)[O-])c1)C(Cl)(Cl)Cl)C(c1ccccc1)c1ccccc1 (configuration not stated)", 99.6),
    ("CCCNC(=O)Nc1ccc(Oc2ncnc3cc(OC)c(OC)cc23)cc1Cl", 97.4),
    ("Cc1cc2ncc(-c3ccccc3)nc2cc1C", 102),
    ("Cc1ccc(NC(=O)c2ccc(CN3CCN(C)CC3)cc2)cc1Nc1nc(-c2cccnc2)cs1", 96.2),
    ("COc1cc2ncnc(Nc3ccc(F)c(Cl)c3)c2cc1OCCCN1CCOCC1", 89.7),
    ("COc1ccc(-c2cnc3c(-c4ccsc4)cnn3c2)cc1", 102),
    ("Nc1nc(Nc2ccc(S(N)(=O)=O)cc2)nn1C(=S)Nc1c(F)cccc1F", 78.8),
]

*Q* Field request: residual activity | item: CSc1nc(-c2ccc(F)cc2)c(-c2ccnc(NC(C)c3ccccc3)c2)[nH]1 (configuration not stated)
*A* 100

*Q* What about this compound? "O=C1Cc2c([nH]c3ccc([N+](=O)[O-])cc23)-c2ccccc2N1"
*A* 88.8

*Q* Ok, now "CC(C)n1cnc2c(Nc3cccc(Cl)c3)nc(NCCO)nc21"
*A* 87.8

*Q* Next record, please: "O=c1cc(N2CCNCC2)oc2c(-c3ccccc3)cccc12"
*A* 105

*Q* And the next one, "NC(=O)c1ccc(N(C(N)=O)c2c(F)cccc2F)nc1-c1ccc(F)cc1F" ?
*A* 101

*Q* Further, for "Nc1nc(Nc2ccc(S(N)(=O)=O)cc2)nn1C(=O)c1c(F)cccc1F" ?
*A* 80

*Q* And "CCN1/C(=C/C(C)=O)Sc2ccc(OC)cc21" ?
*A* 93.7

*Q* What about "COc1cc2nccc(Oc3ccc(NC(=S)NC(=O)c4ccccc4C)cc3)c2cc1OC" ?
*A* 104

*Q* Also need "Oc1ccc(-c2nc(-c3ccc(F)cc3)c(-c3ccncc3)[nH]2)cc1" , thanks.
*A* 106

*Q* Another compound to check: "CC(C)[C@H](CO)Nc1nc(Nc2cccc(Cl)c2)c2ncn(C(C)C)c2n1"
*A* 95.1

*Q* Check "Nc1n[nH]c2nnc(-c3c(-c4ccccc4)nn4ccccc34)cc12" too.
*A* 98.3

*Q* "Clc1ccc(Nc2nnc(Cc3ccncc3)c3ccccc23)cc1" ?
*A* 97.5

*Q* Further, for CS(=O)c1ccc(-c2nc(-c3ccc(F)cc3)c(-c3ccncc3)[nH]2)cc1 (configuration not stated) ?
*A* 101

*Q* Proceed to "O=C(Nc1ccc(Cl)cc1)c1ccccc1NCc1ccncc1"
*A* 105

###

Target: HCK (human)
Test: radiometric filter-binding kinase assay, Kinase HotSpot
Details: compound 0.5 µM; ATP 10 µM
Rule: residual activity under 90% gives no (0), otherwise yes (1).

# compound, class assignment
measured = [
    ("COc1cc2ncnc(Nc3ccc(F)c(Cl)c3)c2cc1OCCCN1CCOCC1", "no (0)"),
    ("CS(=O)c1ccc(-c2nc(-c3ccc(F)cc3)c(-c3ccncc3)[nH]2)cc1 (stereo unspecified)", "yes (1)"),
]

*Q* Exam item: decide whether the reported residual activity for "CC(C)n1cnc2c(Nc3cccc(Cl)c3)nc(NCCO)nc21" is at least 90%.
*A* no (0)

*Q* Same read-out for "O=C1Nc2ccccc2/C1=C\c1c(Cl)[nH]c2ccccc12" ?
*A* yes (1)

*Q* Next compound: "O=c1cc(N2CCNCC2)oc2c(-c3ccccc3)cccc12"
*A* yes (1)

###

Target: BMX (human)
Assay: radiometric filter-binding kinase assay, Kinase HotSpot
Conditions: compound 0.5 µM; ATP 10 µM
Below, each entry is listed alongside its reported residual activity.
Give the quantity in %, number only.

The following compounds have reported results that may help.
# compound, observed property, reported value
records = [
    ("Clc1ccc(Nc2nnc(Cc3ccncc3)c3ccccc23)cc1", "residual activity", 106),
    ("CS(=O)c1ccc(-c2nc(-c3ccc(F)cc3)c(-c3ccncc3)[nH]2)cc1 (stereo not given)", "residual activity", 94.4),
]

Please look at the following compound next.
*Q* # returns recorded residual activity (system: BMX (human)) for "CC(C)(C)c1nc2c3ccc(F)cc3c3c(=O)[nH]ccc3c2[nH]1"
*A* 71.9

###

Entries and their residual activity
Molecular target: MERTK (human) (UniProt Q12866)
Sequence (Q12866 whole entry, looked up): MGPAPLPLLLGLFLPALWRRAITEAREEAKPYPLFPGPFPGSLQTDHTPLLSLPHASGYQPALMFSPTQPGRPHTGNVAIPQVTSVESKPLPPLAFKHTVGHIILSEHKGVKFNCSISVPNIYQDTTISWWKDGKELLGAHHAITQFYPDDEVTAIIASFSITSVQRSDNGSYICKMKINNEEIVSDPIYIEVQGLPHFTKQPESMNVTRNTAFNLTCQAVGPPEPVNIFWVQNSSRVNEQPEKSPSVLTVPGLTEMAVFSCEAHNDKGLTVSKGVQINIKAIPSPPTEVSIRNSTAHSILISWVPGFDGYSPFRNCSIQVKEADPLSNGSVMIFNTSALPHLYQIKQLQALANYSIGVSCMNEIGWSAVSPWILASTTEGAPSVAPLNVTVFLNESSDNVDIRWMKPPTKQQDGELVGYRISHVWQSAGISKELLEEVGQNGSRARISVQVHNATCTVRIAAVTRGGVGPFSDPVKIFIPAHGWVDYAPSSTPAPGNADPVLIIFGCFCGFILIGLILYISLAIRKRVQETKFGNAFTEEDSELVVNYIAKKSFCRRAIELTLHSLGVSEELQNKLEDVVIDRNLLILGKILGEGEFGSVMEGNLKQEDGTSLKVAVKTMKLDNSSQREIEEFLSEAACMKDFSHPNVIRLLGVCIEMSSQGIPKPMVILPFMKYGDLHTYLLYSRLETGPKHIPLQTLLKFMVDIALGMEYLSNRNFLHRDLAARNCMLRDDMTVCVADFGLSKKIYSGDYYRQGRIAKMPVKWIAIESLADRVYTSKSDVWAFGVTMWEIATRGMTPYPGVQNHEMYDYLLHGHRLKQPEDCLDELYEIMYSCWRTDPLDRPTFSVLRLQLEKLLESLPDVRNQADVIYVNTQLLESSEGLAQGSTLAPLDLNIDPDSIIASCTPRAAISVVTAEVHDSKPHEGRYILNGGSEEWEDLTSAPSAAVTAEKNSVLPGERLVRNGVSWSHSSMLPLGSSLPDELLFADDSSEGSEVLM
Assay: radiometric filter-binding kinase assay, Kinase HotSpot
Settings: compound 0.5 µM; ATP 10 µM
Numbers only here, please. The scale is %.

Some molecules with recorded residual activity:
# smiles input, residual activity [%]
data = [
    ("COc1ccc(-c2cnc3c(-c4ccsc4)cnn3c2)cc1", 81.2),
    ("NC(=O)c1ccc(N(C(N)=O)c2c(F)cccc2F)nc1-c1ccc(F)cc1F", 114),
]

*Q* Field request: residual activity | item: "CC(C)(C)c1nc2c3ccc(F)cc3c3c(=O)[nH]ccc3c2[nH]1"
*A* 79.4

*Q* What about this molecule? "COc1cc2ncnc(Nc3ccc(F)c(Cl)c3)c2cc1OCCCN1CCOCC1"
*A* 95.9

###

Biological target: MYO3B (human) (UniProt Q8WXR4)
Sequence (Q8WXR4 whole entry, looked up): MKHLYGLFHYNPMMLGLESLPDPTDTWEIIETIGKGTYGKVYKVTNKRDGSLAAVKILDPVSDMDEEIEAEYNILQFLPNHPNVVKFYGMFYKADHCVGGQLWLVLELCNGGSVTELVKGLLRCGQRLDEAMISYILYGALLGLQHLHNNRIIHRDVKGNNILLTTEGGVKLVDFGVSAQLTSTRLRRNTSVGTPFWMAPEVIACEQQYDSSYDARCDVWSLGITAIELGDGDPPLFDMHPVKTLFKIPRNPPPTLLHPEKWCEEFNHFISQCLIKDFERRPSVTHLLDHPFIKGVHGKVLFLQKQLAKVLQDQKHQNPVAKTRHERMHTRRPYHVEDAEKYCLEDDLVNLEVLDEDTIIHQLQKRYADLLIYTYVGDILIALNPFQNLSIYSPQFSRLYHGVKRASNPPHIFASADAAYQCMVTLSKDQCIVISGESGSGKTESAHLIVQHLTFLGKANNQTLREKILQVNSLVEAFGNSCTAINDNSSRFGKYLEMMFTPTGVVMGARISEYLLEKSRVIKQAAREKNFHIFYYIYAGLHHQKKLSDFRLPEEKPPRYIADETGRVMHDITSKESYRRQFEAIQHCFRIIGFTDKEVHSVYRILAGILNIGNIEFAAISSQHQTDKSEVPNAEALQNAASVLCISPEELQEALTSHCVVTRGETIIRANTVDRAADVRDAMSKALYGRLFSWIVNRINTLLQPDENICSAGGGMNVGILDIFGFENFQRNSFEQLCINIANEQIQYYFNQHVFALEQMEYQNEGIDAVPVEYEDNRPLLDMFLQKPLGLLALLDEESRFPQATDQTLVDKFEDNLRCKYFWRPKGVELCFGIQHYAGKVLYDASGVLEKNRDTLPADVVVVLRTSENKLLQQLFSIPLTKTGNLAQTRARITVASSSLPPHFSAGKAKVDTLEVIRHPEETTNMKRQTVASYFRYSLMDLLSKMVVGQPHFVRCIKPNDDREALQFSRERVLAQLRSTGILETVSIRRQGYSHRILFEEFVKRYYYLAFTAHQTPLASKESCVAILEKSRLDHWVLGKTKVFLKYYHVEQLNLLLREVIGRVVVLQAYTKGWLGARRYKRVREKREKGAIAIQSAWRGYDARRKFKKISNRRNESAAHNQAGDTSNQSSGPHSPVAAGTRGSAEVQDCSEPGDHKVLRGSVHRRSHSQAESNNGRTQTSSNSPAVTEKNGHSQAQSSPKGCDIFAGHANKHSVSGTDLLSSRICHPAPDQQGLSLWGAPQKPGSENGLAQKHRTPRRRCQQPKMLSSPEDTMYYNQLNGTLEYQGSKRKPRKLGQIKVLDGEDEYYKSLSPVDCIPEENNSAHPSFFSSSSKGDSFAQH
Test: radiometric filter-binding kinase assay, Kinase HotSpot
Conditions: compound 0.5 µM; ATP 10 µM
observed property: residual activity (%)
# unit: % | format: bare number

Recorded results for 8 molecules are shown here.
# molecule, residual activity / %
measured = [
    ("Cc1cc2ncc(-c3ccccc3)nc2cc1C", 99),
    ("COc1cc2nccc(Oc3ccc(NC(=S)NC(=O)c4ccccc4C)cc3)c2cc1OC", 83.4),
    ("Oc1ccc(-c2nc(-c3ccc(F)cc3)c(-c3ccncc3)[nH]2)cc1", 101),
    ("Cc1ccc(NC(=O)c2ccc(CN3CCN(C)CC3)cc2)cc1Nc1nc(-c2cccnc2)cs1", 82.6),
    ("CCCNC(=O)Nc1ccc(Oc2ncnc3cc(OC)c(OC)cc23)cc1Cl", 76.2),
    ("COc1cc2ncnc(Nc3ccc(F)c(Cl)c3)c2cc1OCCCN1CCOCC1", 91.4),
    ("CS(=O)c1ccc(-c2nc(-c3ccc(F)cc3)c(-c3ccncc3)[nH]2)cc1 (stereo unspecified)", 104),
    ("CC(C)[C@H](CO)Nc1nc(Nc2cccc(Cl)c2)c2ncn(C(C)C)c2n1", 94.2),
]

*Q* Would you kindly share the measured residual activity for "O=C(Nc1ccc(Cl)cc1)c1ccccc1NCc1ccncc1" ?
*A* 82

*Q* Let us now turn to "COc1ccc(-c2cnc3c(-c4ccsc4)cnn3c2)cc1"
*A* 84

*Q* What do you have for "C#Cc1cccc(Nc2ncnc3cc(OCCOC)c(OCCOC)cc23)c1" ?
*A* 84.4

###

Each entry below lists one item and its recorded residual activity value.
Biological target: SRC (human) (UniProt P12931)
Sequence (P12931 whole entry, looked up): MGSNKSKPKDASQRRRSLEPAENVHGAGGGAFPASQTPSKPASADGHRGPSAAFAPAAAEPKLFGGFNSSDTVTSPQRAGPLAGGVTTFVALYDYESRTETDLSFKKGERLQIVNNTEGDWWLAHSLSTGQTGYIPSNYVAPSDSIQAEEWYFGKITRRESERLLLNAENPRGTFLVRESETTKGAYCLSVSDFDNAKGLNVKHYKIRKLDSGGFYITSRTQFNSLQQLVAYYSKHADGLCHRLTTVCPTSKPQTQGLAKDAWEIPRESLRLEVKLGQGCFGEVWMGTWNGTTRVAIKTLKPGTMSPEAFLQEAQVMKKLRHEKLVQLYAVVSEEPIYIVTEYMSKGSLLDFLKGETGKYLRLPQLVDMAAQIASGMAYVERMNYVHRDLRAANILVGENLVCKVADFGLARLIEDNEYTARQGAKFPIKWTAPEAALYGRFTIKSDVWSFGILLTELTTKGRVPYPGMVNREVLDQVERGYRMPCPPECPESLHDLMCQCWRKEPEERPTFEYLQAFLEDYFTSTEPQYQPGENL
Assay: radiometric filter-binding kinase assay, Kinase HotSpot
Details: compound 0.5 µM; ATP 10 µM
Kindly answer with a numeric value in %, unit omitted.

# compound, residual activity [%]
rows = [
    ("COc1ccc(-c2cnc3c(-c4ccsc4)cnn3c2)cc1", 91.7),
    ("O=C(NC(NC(=S)Nc1ccc(F)c([N+](=O)[O-])c1)C(Cl)(Cl)Cl)C(c1ccccc1)c1ccccc1 (centres undefined)", 96.1),
    ("CCN1/C(=C/C(C)=O)Sc2ccc(OC)cc21", 94.4),
]

*Q* # residual activity lookup, item "CC(C)n1cnc2c(Nc3cccc(Cl)c3)nc(NCCO)nc21"
*A* 68.9

###

Biological target: TYK2 JH1 catalytic (human)
Test: radiometric filter-binding kinase assay, Kinase HotSpot
Settings: compound 0.5 µM; ATP 10 µM
observed property: residual activity (%)
Form entry: value (%) — number only.

# molecule, tested target, units label, residual activity
measured = [
    ("O=c1cc(-c2cccc3c2Sc2ccccc2S3)oc(N2CCOCC2)c1", "TYK2 JH1 catalytic (human)", "%", 95.8),
    ("CC(C)[C@H](CO)Nc1nc(Nc2cccc(Cl)c2)c2ncn(C(C)C)c2n1", "TYK2 JH1 catalytic (human)", "%", 95.2),
    ("CSc1nc(-c2ccc(F)cc2)c(-c2ccnc(NC(C)c3ccccc3)c2)[nH]1 (stereo not given)", "TYK2 JH1 catalytic (human)", "%", 96.5),
    ("Nc1n[nH]c2nnc(-c3c(-c4ccccc4)nn4ccccc34)cc12", "TYK2 JH1 catalytic (human)", "%", 104),
    ("Nc1nc(Nc2ccc(S(N)(=O)=O)cc2)nn1C(=O)c1c(F)cccc1F", "TYK2 JH1 catalytic (human)", "%", 0.878),
]

*Q* // returns reported residual activity for input "Cc1cc2ncc(-c3ccccc3)nc2cc1C"
*A* 97.6

*Q* Cool, now "O=C(Nc1ccc(Cl)cc1)c1ccccc1NCc1ccncc1"
*A* 92.1

*Q* Also, "Nc1nc(Nc2ccc(S(N)(=O)=O)cc2)nn1C(=S)Nc1c(F)cccc1F" please.
*A* 5.11

*Q* And for "COc1cc2nccc(Oc3ccc(NC(=S)NC(=O)c4ccccc4C)cc3)c2cc1OC" ?
*A* 88.5

*Q* Try this molecule too: "O=c1cc(N2CCNCC2)oc2c(-c3ccccc3)cccc12"
*A* 98.5

*Q* Next entry: CS(=O)c1ccc(-c2nc(-c3ccc(F)cc3)c(-c3ccncc3)[nH]2)cc1 (stereo not given)
*A* 102

*Q* Record: "CC(C)(C)c1nc2c3ccc(F)cc3c3c(=O)[nH]ccc3c2[nH]1"
*A* 1.48

*Q* Same question, "CC(C)n1cnc2c(Nc3cccc(Cl)c3)nc(NCCO)nc21" this time
*A* 105

*Q* // repeat for "COc1cc2ncnc(Nc3ccc(F)c(Cl)c3)c2cc1OCCCN1CCOCC1" and report
*A* 102

*Q* Also "Oc1ccc(-c2nc(-c3ccc(F)cc3)c(-c3ccncc3)[nH]2)cc1" , if possible.
*A* 106
